Attribution: the RNAGym collection of RNA variant scans (doi:10.1126/science.aae0568)

B1: tRNA (parent)
chain: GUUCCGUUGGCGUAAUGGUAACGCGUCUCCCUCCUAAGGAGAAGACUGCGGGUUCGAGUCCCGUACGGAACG

variants of: B1; test: yeast fitness relative to wild type (ratio to wild type); higher = fitter; tRNA-Arg(CCU), competitive growth, 37 C, YPD
Variants at the floor of the assay were thinned out.
Tag: Yes if measured yeast fitness is not below 0.6, No if it is.

Query :: Could you tell me if the measured yeast fitness of C5G C11G A20C C33U C34U C61G reaches 0.6 or more?
Result :: No

---
Query :: Could you tell me if the measured yeast fitness of A40G C46U C60G C66G reaches 0.6 or more?
Result :: No

Query :: Could you tell me if the measured yeast fitness of U2G C30U G58C G63C reaches 0.6 or more?
Result :: Yes

Query :: Could you tell me if the measured yeast fitness of G56C A65U reaches 0.6 or more?
Result :: Yes

Query :: Could you tell me if the measured yeast fitness of U8A G23C C61U reaches 0.6 or more?
Result :: No

Query :: Could you tell me if the measured yeast fitness of U2G A14C A42C C49U A65C reaches 0.6 or more?
Result :: No

Query :: Could you tell me if the measured yeast fitness of G9C U19C G48A C49U reaches 0.6 or more?
Result :: Yes
